Molecular target: PI3Kδ (Homo sapiens (Human))
Sequence (O00329 whole entry): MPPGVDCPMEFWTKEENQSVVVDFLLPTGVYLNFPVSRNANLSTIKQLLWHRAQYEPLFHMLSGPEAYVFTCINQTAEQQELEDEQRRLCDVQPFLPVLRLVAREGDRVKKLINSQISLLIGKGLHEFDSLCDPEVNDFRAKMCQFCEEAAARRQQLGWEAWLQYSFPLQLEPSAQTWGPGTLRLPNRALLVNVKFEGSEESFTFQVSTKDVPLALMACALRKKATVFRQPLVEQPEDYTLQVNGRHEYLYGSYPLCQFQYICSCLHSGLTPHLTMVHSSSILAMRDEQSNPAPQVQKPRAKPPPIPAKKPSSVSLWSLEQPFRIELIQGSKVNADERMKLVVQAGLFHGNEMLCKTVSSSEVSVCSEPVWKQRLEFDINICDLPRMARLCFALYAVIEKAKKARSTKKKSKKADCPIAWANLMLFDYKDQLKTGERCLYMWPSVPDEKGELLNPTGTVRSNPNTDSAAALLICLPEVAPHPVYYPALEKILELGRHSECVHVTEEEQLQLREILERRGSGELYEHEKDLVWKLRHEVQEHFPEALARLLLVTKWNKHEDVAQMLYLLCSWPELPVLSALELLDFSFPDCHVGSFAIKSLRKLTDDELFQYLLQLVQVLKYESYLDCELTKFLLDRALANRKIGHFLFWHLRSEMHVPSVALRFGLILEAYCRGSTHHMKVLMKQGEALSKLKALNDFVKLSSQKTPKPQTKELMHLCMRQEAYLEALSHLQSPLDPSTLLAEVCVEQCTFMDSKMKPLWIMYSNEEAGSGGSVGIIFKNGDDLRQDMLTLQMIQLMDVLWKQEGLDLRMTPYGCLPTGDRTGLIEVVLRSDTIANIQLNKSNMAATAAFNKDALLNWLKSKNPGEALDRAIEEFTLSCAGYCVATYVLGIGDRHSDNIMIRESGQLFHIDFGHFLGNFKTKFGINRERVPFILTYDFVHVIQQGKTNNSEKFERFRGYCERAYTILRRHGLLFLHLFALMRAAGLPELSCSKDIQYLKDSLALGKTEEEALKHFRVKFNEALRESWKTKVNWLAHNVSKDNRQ
Sequence (P27986 whole entry partner): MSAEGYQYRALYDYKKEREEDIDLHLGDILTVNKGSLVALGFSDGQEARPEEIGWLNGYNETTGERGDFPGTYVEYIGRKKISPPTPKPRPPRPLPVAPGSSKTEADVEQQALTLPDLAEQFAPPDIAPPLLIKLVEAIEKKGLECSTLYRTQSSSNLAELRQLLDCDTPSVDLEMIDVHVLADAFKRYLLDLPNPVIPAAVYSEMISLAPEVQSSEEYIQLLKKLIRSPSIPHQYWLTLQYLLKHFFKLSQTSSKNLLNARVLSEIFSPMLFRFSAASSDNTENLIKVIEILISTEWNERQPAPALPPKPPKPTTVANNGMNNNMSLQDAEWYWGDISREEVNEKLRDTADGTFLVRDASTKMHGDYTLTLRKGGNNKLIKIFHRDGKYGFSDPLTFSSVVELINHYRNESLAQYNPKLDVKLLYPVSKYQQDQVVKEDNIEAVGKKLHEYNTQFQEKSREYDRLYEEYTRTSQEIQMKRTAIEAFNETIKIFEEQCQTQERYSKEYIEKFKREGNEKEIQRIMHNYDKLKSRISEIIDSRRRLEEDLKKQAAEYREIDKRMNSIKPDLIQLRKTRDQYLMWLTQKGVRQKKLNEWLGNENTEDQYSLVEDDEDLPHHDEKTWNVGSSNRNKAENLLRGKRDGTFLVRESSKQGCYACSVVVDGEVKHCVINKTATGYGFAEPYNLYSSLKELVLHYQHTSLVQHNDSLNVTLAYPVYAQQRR
pKi: −log10 of the molar value.
# binarize pKi: threshold 7 inclusive, high side y, low side n

Here are 2 compounds together with their reported answers.
>>> cat("Cc1cccc2nc(C(C)Nc3ncnc4[nH]cnc34)c(-c3cccc(F)c3)c(=O)n12 (racemic)")
"y"
>>> cat("Cc1cccc2nc([C@H](C)Nc3ncnc(N)c3C#N)c(-c3ccccc3)c(=O)n12")
"y"

Can "Cc1cccc2nc([C@H](C)Nc3ncnc(N)c3C#N)c(-c3ccccn3)c(=O)n12" be said to have pKi at or above 7?
y

Check the entry CC(Nc1ncnc(N)c1C#N)c1c(-c2cc(F)cc(F)c2)c(=O)c2cc(F)ccc2n1C (stereo not drawn) : does pKi equal or exceed 7?
y

Is the recorded value of pKi equal to or greater than 7 for this compound? "C[C@H](Nc1ncnc(N)c1C#N)c1nc2ccccn2c(=O)c1-c1cc(F)cc(F)c1"
y

Hello, I need to know if "Cc1ccccc1-c1c(CSc2ncnc3[nH]cnc23)nc2cccc(C)n2c1=O" has measured pKi not below 7. Thanks!
n

Assess whether reported pKi for "Cc1cccc2nc([C@H](C)Nc3ncnc4[nH]cnc34)c(-c3cccc(F)c3)c(=O)n12" sits at 7 or higher.
y

Given "C[C@@H](Nc1ncnc(N)c1C#N)c1nc2ccccn2c(=O)c1-c1ccccc1S(C)(=O)=O" , state whether its pKi is at least 7.
n
